# Test system: SK-MEL-28
# assay procedure: NCI tumour cell line growth inhibition, 48 h
Structures can show the parent of a compound that is named as a salt. The source made the active and inactive calls. No stated cut-off is given here; in the data, active = GI50 up to about 1.1 µM and inactive = higher.
Labels: T for active, F for inactive

compound: O=C(O[C@H]1[C@@H](O)[C@H](n2cnc3c(Cl)ncnc32)O[C@@H]1COC(c1ccccc1)(c1ccccc1)c1ccccc1)c1ccccc1
answer label: F
--
compound: O=C1c2ccccc2-c2c1c(-c1cccc(Br)c1)nc1ccc3ccccc3c21
answer label: F
--
compound: O=C1C(Cl)=C(N2C(=O)CCCC2=O)C(=O)c2ccccc21
answer label: F
--
compound: Cc1cccc(C(C)(C)C)c1NC(=O)CCc1nnc(S)[nH]1
answer label: F
--
compound: O=C1c2c(O)cccc2Cc2cccc(O)c21
answer label: T
--
compound: N=C(N)c1ccc(-c2ccc(-c3ccc(C(=N)N)cc3)o2)cc1 [FURAMIDINE HYDROCHLORIDE]
answer label: F
--
compound: C=CCOC1CC(n2cnc3c(N)ncnc32)OC1CO (configuration not stated)
answer label: F
--
compound: COc1cc(C)c(C(=O)/C=C/c2cc(OC)c(O)c(OC)c2)cc1O
answer label: F
--
compound: CCOC(=O)c1ccc2nc(-c3ccc(S(=O)(=O)F)cc3)cc(O)c2c1
answer label: F
--
compound: COc1ccc2oc(C(=O)O)c3c2c1CCC3CCC(=O)O (configuration not stated)
answer label: F
--
compound: O=C(c1ccccc1)C1C[C@H]2CO[C@H](c3ccccc3)N2C1=O (some centres not stated)
answer label: F
--
compound: CCc1ccccc1NC(=O)CCc1n[nH]c(=S)o1
answer label: F
--
compound: CCOC(=O)c1ccc(C(=O)C(C(C)=O)C(=O)OC(C)(C)C)n1C (configuration not stated)
answer label: F
--
compound: COC(OC)C1(c2ccccc2)Oc2ccccc2C1=O (configuration not stated)
answer label: F
--
compound: Nc1cc(OCC2CCCCC2)nc(N)n1
answer label: F
--
compound: O=c1nc(-c2ccccc2)scc1-c1ccccc1
answer label: F
--
compound: C[N+](C)(CCNC(=O)c1cccc2cc3ccccc3nc12)Cc1ccc([N+](=O)[O-])s1
answer label: F
--
compound: COC1/C(=C\c2ccccc2I)c2ccccc2N1C(C)=O (configuration not stated)
answer label: F
--
compound: COc1cc2cc3c4c(cc(OC)c(OC)c4c2cc1OC)CCN3C(=O)CCC(=O)O
answer label: F
--
compound: CCOC(=O)C1=C(Nc2ccc(Cl)cc2Cl)OC/C1=N\NS(=O)(=O)c1ccc(C)cc1
answer label: F
--
compound: O=C(O)CNn1c(SCC(=O)O)nnc(/C=C/c2c(O)ccc3ccccc23)c1=O
answer label: F
--
compound: COc1ccc2nc(C)cc(NCCCCCCCCCNc3cc(C)nc4ccc(OC)cc34)c2c1
answer label: F
--
compound: C/C=C1\C(=O)OC2CCN3CCC(COC(=O)C(C)(O)C(C)C1O)C23 (configuration not stated)
answer label: F
--
compound: C[n+]1c(-c2ccc(/C=C/C=N\NC(=O)c3ccc(C(=O)N/N=C\C=C\c4ccc(-c5cn6ccccc6[n+]5C)cc4)cc3)cc2)cn2ccccc21
answer label: F
--
compound: COc1ccc2oc(=O)c(-c3cc4c(c(C)n3)c(=O)oc3ccc(OC)cc34)cc2c1
answer label: F
--
compound: Cc1cccc2c(=O)c([Se]c3coc4c(C)cccc4c3=O)coc12
answer label: F
--
compound: O=C(Cc1ccccc1)Oc1ccc2c(-c3ccccc3)c(C(=O)Nc3ccc(Cl)cc3)c(=O)oc2c1
answer label: F
--
compound: COc1c(C)c2c(c(=O)c3c(C)cccc3n2C)c2c1c(=O)c1c(C)cccc1n2C
answer label: F
--
compound: Cc1ccccc1Nc1nc2c(s1)C(=O)c1ccccc1C2=O
answer label: F
--
compound: O=C1CNc2cc(N3CCOCC3)ccc2N1
answer label: F
--
compound: O=C1N[C@@H]2c3c(csc3Br)C(=O)[C@@H]2O1
answer label: F
--
compound: Cc1ccc(C2=Nc3cccc4cccc(c34)N2)cc1
answer label: F
--
compound: COC(=O)C(COC(C)=O)NC(=O)/C=C/c1ccc(O)c(OC(C)=O)c1 (configuration not stated)
answer label: F
--
compound: CCN(CC)C1Oc2cc3c(cc2C(c2cc(OC)c(O)c(OC)c2)C1C)OCO3 (configuration not stated)
answer label: F
--
compound: CCC1(N)C(=O)OCc2c1cc1n(c2=O)Cc2cc3ccccc3nc2-1 (configuration not stated)
answer label: F
--
compound: O=[N+]([O-])c1cc(CCl)ccc1CCl
answer label: F
--
compound: O=C(O)c1c(CC(Cc2ccccc2)C(=O)O)ccc2c1CCC2 (configuration not stated)
answer label: F
--
compound: CSc1nc2c(nc(N)n2C2OCC(O)C(O)C2O)c(=O)n1C (configuration not stated)
answer label: F
--
compound: COC(=O)CNC(=O)Nc1cc(N2C(=O)ON3C2C(C)(C)N(O)C3(C)C)ccc1C (configuration not stated)
answer label: F
--
compound: COc1cc(C2C(C(=O)O)=C(COC(C)=O)Oc3cc4c(cc32)OCO4)cc(OC)c1OC(C)=O (configuration not stated)
answer label: F
--
compound: CCOC(=O)/C=C/c1c[nH]c(=O)[nH]c1=O
answer label: F
--
compound: CCOC1=CP(=O)(OCC)CC(C)=C1Cl (configuration not stated)
answer label: F

Source: ChEMBL document CHEMBL1201862
